target-system: 5-hydroxytryptamine receptor 7 (Homo sapiens)
Sequence (P34969 whole entry): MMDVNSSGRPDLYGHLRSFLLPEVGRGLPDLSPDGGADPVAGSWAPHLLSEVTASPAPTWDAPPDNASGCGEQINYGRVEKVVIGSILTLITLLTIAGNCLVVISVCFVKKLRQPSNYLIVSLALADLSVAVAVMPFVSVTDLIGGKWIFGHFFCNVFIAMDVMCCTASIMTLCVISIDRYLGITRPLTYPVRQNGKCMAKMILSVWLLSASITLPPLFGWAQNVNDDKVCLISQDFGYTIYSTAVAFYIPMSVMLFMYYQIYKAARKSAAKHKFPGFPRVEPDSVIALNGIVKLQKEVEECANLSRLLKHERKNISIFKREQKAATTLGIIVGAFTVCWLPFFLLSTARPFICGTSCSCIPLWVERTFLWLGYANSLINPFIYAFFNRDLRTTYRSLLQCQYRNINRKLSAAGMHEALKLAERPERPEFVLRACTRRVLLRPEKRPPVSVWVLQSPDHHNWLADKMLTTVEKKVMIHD
pKi: −log10 of the molar value.
Classify by measured pKi: Criterion met if it is equal to or exceeds 7, Criterion not met if it is smaller.

[
  {
    "molecule": "COc1ccc2[nH]cc(C3CCN(CCCCN4C(=O)CC(c5c[nH]c6ccc(OC)cc56)C4=O)CC3)c2c1 (stereo not given)",
    "category-label": "Criterion not met"
  },
  {
    "molecule": "COc1ccc2[nH]cc(C3CC(=O)N(CCCCN4CCC(c5c[nH]c6ccccc56)CC4)C3=O)c2c1 (stereo not given)",
    "category-label": "Criterion met"
  },
  {
    "molecule": "COc1ccc2[nH]cc(C3CCN(CCCCN4C(=O)CC(c5c[nH]c6ccc(F)cc56)C4=O)CC3)c2c1 (stereo not given)",
    "category-label": "Criterion not met"
  }
]

Reported pKi reaches at least 7 for `O=c1ccc2ccc(OCCCCN3CCN(c4cccc5sccc45)CC3)cc2[nH]1` ?
Criterion met

###

target-system: hERG (KCNH2) (Homo sapiens)
Sequence (Q12809 whole entry): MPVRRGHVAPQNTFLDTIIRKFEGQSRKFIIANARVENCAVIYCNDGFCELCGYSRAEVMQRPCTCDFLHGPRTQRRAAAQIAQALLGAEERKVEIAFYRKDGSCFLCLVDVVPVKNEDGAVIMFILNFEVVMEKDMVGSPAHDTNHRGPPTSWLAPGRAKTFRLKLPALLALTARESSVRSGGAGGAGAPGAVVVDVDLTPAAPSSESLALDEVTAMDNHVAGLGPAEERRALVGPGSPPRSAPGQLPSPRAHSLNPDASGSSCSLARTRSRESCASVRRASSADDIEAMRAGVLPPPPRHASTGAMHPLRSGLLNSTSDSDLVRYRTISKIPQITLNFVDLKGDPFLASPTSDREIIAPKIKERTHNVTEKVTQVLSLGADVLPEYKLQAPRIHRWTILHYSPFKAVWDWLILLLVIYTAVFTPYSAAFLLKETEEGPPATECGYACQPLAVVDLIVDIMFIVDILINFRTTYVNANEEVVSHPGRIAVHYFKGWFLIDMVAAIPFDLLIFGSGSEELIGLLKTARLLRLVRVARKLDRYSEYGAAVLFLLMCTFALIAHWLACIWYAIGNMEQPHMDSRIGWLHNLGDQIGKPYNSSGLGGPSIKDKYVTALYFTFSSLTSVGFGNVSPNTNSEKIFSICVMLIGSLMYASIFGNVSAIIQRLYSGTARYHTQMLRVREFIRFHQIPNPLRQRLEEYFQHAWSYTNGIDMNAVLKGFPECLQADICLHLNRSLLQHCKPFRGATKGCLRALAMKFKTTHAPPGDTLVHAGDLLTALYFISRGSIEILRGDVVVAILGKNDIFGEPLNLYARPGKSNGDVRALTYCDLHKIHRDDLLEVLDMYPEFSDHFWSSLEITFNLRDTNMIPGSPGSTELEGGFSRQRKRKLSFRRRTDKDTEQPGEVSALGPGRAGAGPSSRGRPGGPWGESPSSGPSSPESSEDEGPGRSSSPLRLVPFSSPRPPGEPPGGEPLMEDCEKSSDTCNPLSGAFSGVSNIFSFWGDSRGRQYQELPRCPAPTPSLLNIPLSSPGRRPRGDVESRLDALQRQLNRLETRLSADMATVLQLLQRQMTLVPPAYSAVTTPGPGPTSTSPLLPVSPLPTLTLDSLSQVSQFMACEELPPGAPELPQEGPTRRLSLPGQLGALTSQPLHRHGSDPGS
assay-method-text: Inhibition of human ERG at 1 uM by automated patch-clamp assay relative to control
measured-endpoint: inhibition at 1 µM (%)
Response body: numeric value in %, unit text excluded.

Find inhibition at 1 µM (hERG (KCNH2) (Homo sapiens)) for the entry O=C1CC(c2c[nH]c3ccccc23)C(=O)N1CCCCN1CCC(c2c[nH]c3ccc(F)cc23)CC1 (stereo unspecified)
84.7
